Origin of measurements: ChEMBL document CHEMBL5154747

System: HOP-62
Test: Anticancer activity against human HOP-62 cells assessed as cell growth inhibition at 10 uM incubated for 48 hrs by SRB assay relative to control
Type: functional
Conditions: read-out: GI
Attribute: inhibition of growth at 10 µM
The reply should contain only the number, in %.

| SMILES STRUCTURE | UNITS TEXT | VALUE |
| --- | --- | --- |
| NS(=O)(=O)c1ccc(Nc2nc(N/N=C/c3cccs3)nc(Nc3ccccc3)n2)cc1 | % | 15 |
| NS(=O)(=O)c1ccc(Nc2nc(N/N=C/c3ccccn3)nc(Nc3ccccc3)n2)cc1 | % | 128 |

Moving on to another compound below.
For NS(=O)(=O)c1ccc(Nc2nc(N/N=C/c3ccc([N+](=O)[O-])cc3)nc(Nc3ccccc3)n2)cc1 on HOP-62, measured inhibition of growth at 10 µM was 90

====

Tested on: RXF 393
Assay: Anticancer activity against human RXF 393 cells assessed as cell growth inhibition at 10 uM incubated for 48 hrs by SRB assay relative to control
Type: functional
Settings: read-out: GI
Attribute: inhibition of growth at 10 µM
The reply should contain only the number, in %.

Illustrative cases are given below, each with its answer.
| SMILES STRUCTURE | MEASURED ON | UNITS TEXT | inhibition of growth at 10 µM |
| --- | --- | --- | --- |
| NS(=O)(=O)c1ccc(Nc2nc(N/N=C/c3cccc4ccccc34)nc(Nc3ccccc3)n2)cc1 | RXF 393 | % | 64 |
| NS(=O)(=O)c1ccc(Nc2nc(N/N=C/c3ccc(C(F)(F)F)cc3)nc(Nc3ccccc3)n2)cc1 | RXF 393 | % | 139 |
| NS(=O)(=O)c1ccc(Nc2nc(N/N=C/c3ccc(Cl)cc3)nc(Nc3ccccc3)n2)cc1 | RXF 393 | % | 111 |
| COc1ccc(/C=N/Nc2nc(Nc3ccccc3)nc(Nc3ccc(S(N)(=O)=O)cc3)n2)cc1 | RXF 393 | % | 77 |

Moving on to another compound below.
For Cc1nn(-c2ccccc2)cc1/C=N/Nc1nc(Nc2ccccc2)nc(Nc2ccc(S(N)(=O)=O)cc2)n1 on RXF 393, measured inhibition of growth at 10 µM was 120

====

Molecular target: Carbonic anhydrase 9 (Homo sapiens, UniProt Q16790)
Assay: Inhibition of recombinant human CA 9 preincubated for 15 mins by phenol red dye based stopped flow CO2 hydration assay
Attribute: log10 of Ki
The figures below represent log10 of Ki, where Ki is stated in nM.

Illustrative cases are given below, each with its answer.
| SMILES STRUCTURE | log10 of Ki |
| --- | --- |
| NS(=O)(=O)c1ccc(Nc2nc(N/N=C/CCc3ccccc3)nc(Nc3ccccc3)n2)cc1 | 1.46 |
| NS(=O)(=O)c1ccc(Nc2nc(N/N=C/C=C/c3ccccc3)nc(Nc3ccccc3)n2)cc1 | 2.37 |
| COc1ccc(/C=N/Nc2nc(Nc3ccccc3)nc(Nc3ccc(S(N)(=O)=O)cc3)n2)cc1 | 2.00 |
| NS(=O)(=O)c1ccc(Nc2nc(N/N=C/c3ccccc3)nc(Nc3ccccc3)n2)cc1 | 1.48 |
| NS(=O)(=O)c1ccc(Nc2nc(N/N=C/c3cccc4ccccc34)nc(Nc3ccccc3)n2)cc1 | 1.45 |
| NS(=O)(=O)c1ccc(Nc2nc(N/N=C/c3ccc(Cl)cc3)nc(Nc3ccccc3)n2)cc1 | 1.35 |
| NS(=O)(=O)c1ccc(Nc2nc(N/N=C/c3ccc4c(c3)OCO4)nc(Nc3ccccc3)n2)cc1 | 1.47 |
| NS(=O)(=O)c1ccc(Nc2nc(N/N=C/c3cccs3)nc(Nc3ccccc3)n2)cc1 | 2.41 |
| NS(=O)(=O)c1ccc(Nc2nc(N/N=C/c3ccc(C(F)(F)F)cc3)nc(Nc3ccccc3)n2)cc1 | 1.47 |
| Cc1nn(-c2ccccc2)cc1/C=N/Nc1nc(Nc2ccccc2)nc(Nc2ccc(S(N)(=O)=O)cc2)n1 | 2.32 |

Moving on to another compound below.
Recorded log10 of Ki (compound NS(=O)(=O)c1ccc(Nc2nc(N/N=C/c3ccc([N+](=O)[O-])cc3)nc(Nc3ccccc3)n2)cc1 ): 1.50

====

Attribute: GI50
Tested on: CCRF-CEM
Assay: Anticancer activity against human CCRF-CEM cells assessed as cell growth inhibition incubated for 48 hrs by SRB assay
Format: functional
The reply should contain only the number, in nM.

Illustrative cases are given below, each with its answer.
| SMILES STRUCTURE | UNITS TEXT | VALUE |
| --- | --- | --- |
| O=c1[nH]cc(F)c(=O)[nH]1 | nM | 9970 |
| Cc1nn(-c2ccccc2)cc1/C=N/Nc1nc(Nc2ccccc2)nc(Nc2ccc(S(N)(=O)=O)cc2)n1 | nM | 2090 |
| NS(=O)(=O)c1ccc(Nc2nc(N/N=C/c3ccc(C(F)(F)F)cc3)nc(Nc3ccccc3)n2)cc1 | nM | 3000 |

Recorded GI50 (compound NS(=O)(=O)c1ccc(Nc2nc(N/N=C/c3ccccn3)nc(Nc3ccccc3)n2)cc1 ): 310

====

System: UACC-62
Experiment: Anticancer activity against human UACC-62 cells assessed as cell growth inhibition at 10 uM incubated for 48 hrs by SRB assay relative to control
Assay type: functional
Details: read-out: GI
ENDPOINT LABEL: inhibition of growth at 10 µM (%)
The reply should contain only the number, in %.

| SMILES STRUCTURE | inhibition of growth at 10 µM / % |
| --- | --- |
| NS(=O)(=O)c1ccc(Nc2nc(N/N=C/c3ccc4c(c3)OCO4)nc(Nc3ccccc3)n2)cc1 | 21 |
| NS(=O)(=O)c1ccc(Nc2nc(N/N=C/c3ccccn3)nc(Nc3ccccc3)n2)cc1 | 149 |
| NS(=O)(=O)c1ccc(Nc2nc(N/N=C/c3c[nH]c4ccccc34)nc(Nc3ccccc3)n2)cc1 | 61 |
| NS(=O)(=O)c1ccc(Nc2nc(N/N=C/c3ccccc3)nc(Nc3ccccc3)n2)cc1 | 31 |
| NS(=O)(=O)c1ccc(Nc2nc(N/N=C/C=C/c3ccccc3)nc(Nc3ccccc3)n2)cc1 | 33 |
| NS(=O)(=O)c1ccc(Nc2nc(N/N=C/c3cccs3)nc(Nc3ccccc3)n2)cc1 | 24 |

Recorded inhibition of growth at 10 µM (compound NS(=O)(=O)c1ccc(Nc2nc(N/N=C/c3ccc([N+](=O)[O-])cc3)nc(Nc3ccccc3)n2)cc1 ): 54

====

Tested on: MOLT-4
Assay: Anticancer activity against human MOLT-4 cells assessed as cell growth inhibition at 10 uM incubated for 48 hrs by SRB assay relative to control
Type: functional
Conditions: read-out: GI
ENDPOINT LABEL: inhibition of growth at 10 µM (%)
The reply should contain only the number, in %.

For CCCCc1nc(/C=N/Nc2nc(Nc3ccccc3)nc(Nc3ccc(S(N)(=O)=O)cc3)n2)c(Cl)[nH]1 on MOLT-4, measured inhibition of growth at 10 µM was 58

====

Tested on: IGROV-1
Experiment: Anticancer activity against human IGROV-1 cells assessed as cell growth inhibition incubated for 48 hrs by SRB assay
Assay type: functional
Conditions: read-out: LC50 (the source's name)
ENDPOINT LABEL: CC50

For Cc1nn(-c2ccccc2)cc1/C=N/Nc1nc(Nc2ccccc2)nc(Nc2ccc(S(N)(=O)=O)cc2)n1 on IGROV-1, measured CC50 was > 100 µM

====

Attribute: GI50
Tested on: KM12
Test: Anticancer activity against human KM12 cells assessed as cell growth inhibition incubated for 48 hrs by SRB assay
Format: functional
The reply should contain only the number, in nM.

Illustrative cases are given below, each with its answer.
| COMPOUND | UNITS TEXT | GI50 |
| --- | --- | --- |
| NS(=O)(=O)c1ccc(Nc2nc(N/N=C/c3ccccn3)nc(Nc3ccccc3)n2)cc1 | nM | 2140 |
| O=c1[nH]cc(F)c(=O)[nH]1 [FLUOROURACIL] | nM | 210 |
| NS(=O)(=O)c1ccc(Nc2nc(N/N=C/c3ccc(C(F)(F)F)cc3)nc(Nc3ccccc3)n2)cc1 | nM | 2380 |

Moving on to another compound below.
For Cc1nn(-c2ccccc2)cc1/C=N/Nc1nc(Nc2ccccc2)nc(Nc2ccc(S(N)(=O)=O)cc2)n1 on KM12, measured GI50 was 2840

====

Tested on: SK-MEL-28
Assay: Anticancer activity against human SK-MEL-28 cells assessed as cell growth inhibition at 10 uM incubated for 48 hrs by SRB assay relative to control
Format: functional
Conditions: read-out: GI
Please note: Y applies when inhibition of growth at 10 µM is 40% or greater, and N applies otherwise.

| SMILES STRUCTURE | MEASURED ON | CATEGORY |
| --- | --- | --- |
| CN(C)c1ccc(/C=N/Nc2nc(Nc3ccccc3)nc(Nc3ccc(S(N)(=O)=O)cc3)n2)cc1 | SK-MEL-28 | N |
| NS(=O)(=O)c1ccc(Nc2nc(N/N=C/c3ccc(C(F)(F)F)cc3)nc(Nc3ccccc3)n2)cc1 | SK-MEL-28 | Y |
| NS(=O)(=O)c1ccc(Nc2nc(N/N=C/c3cccc4ccccc34)nc(Nc3ccccc3)n2)cc1 | SK-MEL-28 | N |
| NS(=O)(=O)c1ccc(Nc2nc(N/N=C/CCc3ccccc3)nc(Nc3ccccc3)n2)cc1 | SK-MEL-28 | N |
| NS(=O)(=O)c1ccc(Nc2nc(N/N=C/c3ccc(F)cc3)nc(Nc3ccccc3)n2)cc1 | SK-MEL-28 | N |
| NS(=O)(=O)c1ccc(Nc2nc(N/N=C/c3ccc4c(c3)OCO4)nc(Nc3ccccc3)n2)cc1 | SK-MEL-28 | N |
| CCCCc1nc(/C=N/Nc2nc(Nc3ccccc3)nc(Nc3ccc(S(N)(=O)=O)cc3)n2)c(Cl)[nH]1 | SK-MEL-28 | N |
| NS(=O)(=O)c1ccc(Nc2nc(N/N=C/c3ccccn3)nc(Nc3ccccc3)n2)cc1 | SK-MEL-28 | Y |
| NS(=O)(=O)c1ccc(Nc2nc(N/N=C/c3cccs3)nc(Nc3ccccc3)n2)cc1 | SK-MEL-28 | N |
| NS(=O)(=O)c1ccc(Nc2nc(N/N=C/c3ccccc3)nc(Nc3ccccc3)n2)cc1 | SK-MEL-28 | N |

Identify whether the reported inhibition of growth at 10 µM of the following compound is 40% or greater: Cc1ccc(/C=N/Nc2nc(Nc3ccccc3)nc(Nc3ccc(S(N)(=O)=O)cc3)n2)cc1 N

Identify whether the reported inhibition of growth at 10 µM of the following compound is 40% or greater: Cc1nn(-c2ccccc2)cc1/C=N/Nc1nc(Nc2ccccc2)nc(Nc2ccc(S(N)(=O)=O)cc2)n1 Y

Identify whether the reported inhibition of growth at 10 µM of the following compound is 40% or greater: NNc1nc(Nc2ccccc2)nc(Nc2ccc(S(N)(=O)=O)cc2)n1 N

Identify whether the reported inhibition of growth at 10 µM of the following compound is 40% or greater: NS(=O)(=O)c1ccc(Nc2nc(N/N=C/c3c[nH]c4ccccc34)nc(Nc3ccccc3)n2)cc1 Y

Identify whether the reported inhibition of growth at 10 µM of the following compound is 40% or greater: NS(=O)(=O)c1ccc(Nc2nc(N/N=C/c3ccc(Cl)cc3)nc(Nc3ccccc3)n2)cc1 N

Identify whether the reported inhibition of growth at 10 µM of the following compound is 40% or greater: NS(=O)(=O)c1ccc(Nc2nc(N/N=C/c3ccc([N+](=O)[O-])cc3)nc(Nc3ccccc3)n2)cc1 Y

Identify whether the reported inhibition of growth at 10 µM of the following compound is 40% or greater: COc1ccc(/C=N/Nc2nc(Nc3ccccc3)nc(Nc3ccc(S(N)(=O)=O)cc3)n2)cc1 N
